# assay-procedure: Membrane binding affinity to synthetic dimyristoylphosphatidylcholine/polydiacetylene vesicles assessed as colorimetric response by colorimetric assay
# Parameters: concentration or dose not given beside the values
Numbered stars: 1 amine (or outer) side, 2 acyl side, 3 side chain; on linkers, the order of the positions; unused ones are H or OH. Bridge positions count the residues as written; N and C are the ends. Square brackets hold non-standard residues; d marks the D form. Peptide text beside a SMILES is read from it. N(2-Aminoethyl)Gly = O=C(CN(CCN[*:3])[*:1])[*:2]; Adipoyl = O=C(CCCCC(=O)[*:2])[*:1]; Glutaryl = O=C(CCCC(=O)[*:2])[*:1]; Suc = O=C(CCC(=O)[*:2])[*:1]; Nphe = O=C(O)CNCc1ccccc1
Consider the following molecules; for each one, report its Activity.

Recorded Activity of N=C(N)NCCC[C@@H]1NC(=O)[C@@H](Cc2ccccc2)NC(=O)CN(Cc2ccccc2)C(=O)CCC(=O)NCCN(CC(N)=O)C(=O)[C@H](Cc2c[nH]c3ccccc23)NC1=O , please.
< 30%

Record: N=C(N)NCCC[C@@H]1NC(=O)CN(Cc2ccccc2)C(=O)CN(Cc2ccccc2)C(=O)CCC(=O)NCCN(CC(N)=O)C(=O)[C@H](Cc2c[nH]c3ccccc23)NC1=O ([Nphe][Nphe]RW[N(2-Aminoethyl)Gly]-NH2; linker N-5 via Suc)
< 30%

Also CC(=O)NCC(=O)N[C@@H](Cc1ccccc1)C(=O)N(CC(=O)N[C@@H](CCCNC(=N)N)C(=O)N[C@@H](Cc1c[nH]c2ccccc12)C(=O)NCC(N)=O)Cc1ccccc1 (HELM PEPTIDE1{[ac].G.F.[O=C(CN(Cc1ccccc1)[*:1])[*:2]].R.W.G.[am]}$$$$V2.0) ?
< 30%

Quick one: N=C(N)NCCC[C@@H]1NC(=O)CN(Cc2ccccc2)C(=O)CN(Cc2ccccc2)C(=O)CCCCC(=O)NCCN(CC(N)=O)C(=O)[C@H](Cc2c[nH]c3ccccc23)NC1=O ([Nphe][Nphe]RW[N(2-Aminoethyl)Gly]-NH2; linker N-5 via Adipoyl)
< 30%

And what about the molecule CC(=O)NCC(=O)N(CC(=O)N(CC(=O)N[C@@H](CCCNC(=N)N)C(=O)N[C@@H](Cc1c[nH]c2ccccc12)C(=O)NCC(N)=O)Cc1ccccc1)Cc1ccccc1 (HELM PEPTIDE1{[ac].G.[O=C(CN(Cc1ccccc1)[*:1])[*:2]].[O=C(CN(Cc1ccccc1)[*:1])[*:2]].R.W.G.[am]}$$$$V2.0) ?
< 30%

What do we get for N=C(N)NCCC[C@@H]1NC(=O)[C@@H](Cc2ccccc2)NC(=O)CN(Cc2ccccc2)C(=O)CCCCC(=O)NCCN(CC(N)=O)C(=O)[C@H](Cc2c[nH]c3ccccc23)NC1=O ?
90%

Check N=C(N)NCCC[C@@H]1NC(=O)CN(Cc2ccccc2)C(=O)[C@H](Cc2ccccc2)NC(=O)CCCCC(=O)NCCN(CC(N)=O)C(=O)[C@H](Cc2c[nH]c3ccccc23)NC1=O (F[Nphe]RW[N(2-Aminoethyl)Gly]-NH2; linker N-5 via Adipoyl) too.
< 30%

Also, CC(=O)NCC(=O)N(CC(=O)N[C@H](Cc1ccccc1)C(=O)N[C@@H](CCCNC(=N)N)C(=O)N[C@@H](Cc1c[nH]c2ccccc12)C(=O)NCC(N)=O)Cc1ccccc1 please.
31%

Next: N=C(N)NCCC[C@@H]1NC(=O)[C@@H](Cc2ccccc2)NC(=O)CN(Cc2ccccc2)C(=O)CCCC(=O)NCCN(CC(N)=O)C(=O)[C@H](Cc2c[nH]c3ccccc23)NC1=O
89%

Moving on to the next molecule: N=C(N)NCCC[C@@H]1NC(=O)CN(Cc2ccccc2)C(=O)[C@H](Cc2ccccc2)NC(=O)CCC(=O)NCCN(CC(N)=O)C(=O)[C@H](Cc2c[nH]c3ccccc23)NC1=O (F[Nphe]RW[N(2-Aminoethyl)Gly]-NH2; linker N-5 via Suc)
< 30%

// same read-out, input: N=C(N)NCCC[C@@H]1NC(=O)CN(Cc2ccccc2)C(=O)CN(Cc2ccccc2)C(=O)CCCC(=O)NCCN(CC(N)=O)C(=O)[C@H](Cc2c[nH]c3ccccc23)NC1=O ([Nphe][Nphe]RW[N(2-Aminoethyl)Gly]-NH2; linker N-5 via Glutaryl)
< 30%

Do the same for N=C(N)NCCC[C@@H]1NC(=O)CN(Cc2ccccc2)C(=O)[C@H](Cc2ccccc2)NC(=O)CCCC(=O)NCCN(CC(N)=O)C(=O)[C@H](Cc2c[nH]c3ccccc23)NC1=O (F[Nphe]RW[N(2-Aminoethyl)Gly]-NH2; linker N-5 via Glutaryl) please
< 30%

----------
# assay-procedure: Metabolic stability in rat serum assessed as drug degradation after 1 hr
# Type: ADME, cell-free
# measurement-context: read-out: Activity
outcome-measure: metabolised at 1 h (%)
Hi! Could you send only the number? It should be in %, unit omitted.

Consider the compound shown here: CC(=O)NCC(=O)N(CC(=O)N[C@H](Cc1ccccc1)C(=O)N[C@@H](CCCNC(=N)N)C(=O)N[C@@H](Cc1c[nH]c2ccccc12)C(=O)NCC(N)=O)Cc1ccccc1 What is its recorded metabolised at 1 h?
50

----------
# assay-system: Melanocyte-stimulating hormone receptor (Mus musculus, UniProt Q01727)
# Sequence (Q01727 whole entry): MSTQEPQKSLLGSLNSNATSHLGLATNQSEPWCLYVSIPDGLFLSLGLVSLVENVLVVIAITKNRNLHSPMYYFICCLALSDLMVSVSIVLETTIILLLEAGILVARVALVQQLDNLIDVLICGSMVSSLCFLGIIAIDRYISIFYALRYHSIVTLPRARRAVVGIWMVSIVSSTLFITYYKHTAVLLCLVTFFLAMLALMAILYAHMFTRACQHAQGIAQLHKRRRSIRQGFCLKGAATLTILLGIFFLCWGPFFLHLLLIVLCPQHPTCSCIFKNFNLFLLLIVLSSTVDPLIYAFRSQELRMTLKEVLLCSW
# assay-procedure: Agonist activity at mouse MC1R expressed in HEK293 cells by beta-galactosidase reporter gene assay
pEC50: −log10 of the molar value. Numbered stars: 1 amine (or outer) side, 2 acyl side, 3 side chain; on linkers, the order of the positions; unused ones are H or OH. Bridge positions count the residues as written; N and C are the ends. Square brackets hold non-standard residues; d marks the D form. Peptide text beside a SMILES is read from it. N(2-Aminoethyl)Gly = O=C(CN(CCN[*:3])[*:1])[*:2]; Suc = O=C(CCC(=O)[*:2])[*:1]; Nphe = O=C(O)CNCc1ccccc1
Assign class by pEC50: not lower than 6 means class 1; lower than 6 means class 0.

Say whether N=C(N)NCCC[C@@H]1NC(=O)[C@@H](Cc2ccccc2)NC(=O)CN(Cc2ccccc2)C(=O)CCCC(=O)NCCN(CC(N)=O)C(=O)[C@H](Cc2c[nH]c3ccccc23)NC1=O shows pEC50 of 6 or more.
class 1

Same again, this time with CC(=O)NCC(=O)N(CC(=O)N[C@H](Cc1ccccc1)C(=O)N[C@@H](CCCNC(=N)N)C(=O)N[C@@H](Cc1c[nH]c2ccccc12)C(=O)NCC(N)=O)Cc1ccccc1
class 0

And what about the compound N=C(N)NCCC[C@@H]1NC(=O)[C@@H](Cc2ccccc2)NC(=O)CN(Cc2ccccc2)C(=O)CCC(=O)NCCN(CC(N)=O)C(=O)[C@H](Cc2c[nH]c3ccccc23)NC1=O ?
class 1

Request: N=C(N)NCCC[C@@H]1NC(=O)CN(Cc2ccccc2)C(=O)CN(Cc2ccccc2)C(=O)CCC(=O)NCCN(CC(N)=O)C(=O)[C@H](Cc2c[nH]c3ccccc23)NC1=O ([Nphe][Nphe]RW[N(2-Aminoethyl)Gly]-NH2; linker N-5 via Suc)
class 1

----------
What metabolised at 1.5 h was measured for each of the following?
# assay-procedure: Metabolic stability in Wistar rat brush border membrane vesicles assessed as drug degradation up to 90 mins by HPLC
# Type: ADME, cell membranes
# measurement-context: read-out: Activity
Numbered stars: 1 amine (or outer) side, 2 acyl side, 3 side chain; on linkers, the order of the positions; unused ones are H or OH. Bridge positions count the residues as written; N and C are the ends. Square brackets hold non-standard residues; d marks the D form. Peptide text beside a SMILES is read from it. N(2-Aminoethyl)Gly = O=C(CN(CCN[*:3])[*:1])[*:2]; Glutaryl = O=C(CCCC(=O)[*:2])[*:1]; Nphe = O=C(O)CNCc1ccccc1

Data request, read-out metabolised at 1.5 h, for N=C(N)NCCC[C@@H]1NC(=O)[C@@H](Cc2ccccc2)NC(=O)CN(Cc2ccccc2)C(=O)CCCC(=O)NCCN(CC(N)=O)C(=O)[C@H](Cc2c[nH]c3ccccc23)NC1=O
5%

Same for CC(=O)NCC(=O)N(CC(=O)N[C@H](Cc1ccccc1)C(=O)N[C@@H](CCCNC(=N)N)C(=O)N[C@@H](Cc1c[nH]c2ccccc12)C(=O)NCC(N)=O)Cc1ccccc1
20%

Could you do the same for NC(=O)CN1CCNC(=O)CCCC(=O)N[C@@H](Cc2ccccc2)C(=O)N(Cc2ccccc2)CC(=O)N[C@@H](CCCN=C(N)N)C(=O)N[C@@H](Cc2c[nH]c3ccccc23)C1=O (F[Nphe]RW[N(2-Aminoethyl)Gly]-NH2; linker N-5 via Glutaryl) , please?
5%

Moving on to the next molecule: NC(=O)CN1CCNC(=O)CCCC(=O)N(Cc2ccccc2)CC(=O)N(Cc2ccccc2)CC(=O)N[C@@H](CCCN=C(N)N)C(=O)N[C@@H](Cc2c[nH]c3ccccc23)C1=O ([Nphe][Nphe]RW[N(2-Aminoethyl)Gly]-NH2; linker N-5 via Glutaryl)
5%

----------
What metabolised at 4 h was measured for each of the following?
# assay-procedure: Metabolic stability in rat serum assessed as drug degradation after 4 hrs
# Assay type: ADME, cell-free
# measurement-context: read-out: Activity

metabolised at 4 h for N=C(N)NCCC[C@@H]1NC(=O)[C@@H](Cc2ccccc2)NC(=O)CN(Cc2ccccc2)C(=O)CCCC(=O)NCCN(CC(N)=O)C(=O)[C@H](Cc2c[nH]c3ccccc23)NC1=O ?
> 40%

// next record N=C(N)NCCC[C@@H]1NC(=O)[C@@H](Cc2ccccc2)NC(=O)CN(Cc2ccccc2)C(=O)CCCCC(=O)NCCN(CC(N)=O)C(=O)[C@H](Cc2c[nH]c3ccccc23)NC1=O
> 40%
